Biological target: 5-HT2A (Homo sapiens, UniProt P28223)
Sequence (P28223 whole entry): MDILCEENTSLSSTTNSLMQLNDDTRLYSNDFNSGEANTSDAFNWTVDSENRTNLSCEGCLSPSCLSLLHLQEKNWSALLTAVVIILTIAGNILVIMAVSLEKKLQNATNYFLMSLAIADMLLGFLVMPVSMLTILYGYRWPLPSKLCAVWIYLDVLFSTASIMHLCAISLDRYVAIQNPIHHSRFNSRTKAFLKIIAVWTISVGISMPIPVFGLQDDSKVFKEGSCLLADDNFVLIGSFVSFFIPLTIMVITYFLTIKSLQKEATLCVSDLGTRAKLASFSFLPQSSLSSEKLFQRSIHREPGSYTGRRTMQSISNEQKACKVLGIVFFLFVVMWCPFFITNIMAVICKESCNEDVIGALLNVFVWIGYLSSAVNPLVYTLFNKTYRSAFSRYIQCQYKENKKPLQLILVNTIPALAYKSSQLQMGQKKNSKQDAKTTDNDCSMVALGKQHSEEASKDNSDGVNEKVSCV

[
  {
    "compound": "Nc1c(Cl)cc(C(=O)NC2CCN(CCC(=O)O)CC2)c2c1CCO2",
    "Ki": "136 µM"
  },
  {
    "compound": "COCCCN1CCC(NC(=O)c2cc(Cl)c(N)c3c2OCC3)CC1 [Prucalopride]",
    "Ki": "30 µM"
  }
]

====

compounds and their reported Ki
Target: Human D2 (Homo sapiens)
Sequence (P14416 whole entry): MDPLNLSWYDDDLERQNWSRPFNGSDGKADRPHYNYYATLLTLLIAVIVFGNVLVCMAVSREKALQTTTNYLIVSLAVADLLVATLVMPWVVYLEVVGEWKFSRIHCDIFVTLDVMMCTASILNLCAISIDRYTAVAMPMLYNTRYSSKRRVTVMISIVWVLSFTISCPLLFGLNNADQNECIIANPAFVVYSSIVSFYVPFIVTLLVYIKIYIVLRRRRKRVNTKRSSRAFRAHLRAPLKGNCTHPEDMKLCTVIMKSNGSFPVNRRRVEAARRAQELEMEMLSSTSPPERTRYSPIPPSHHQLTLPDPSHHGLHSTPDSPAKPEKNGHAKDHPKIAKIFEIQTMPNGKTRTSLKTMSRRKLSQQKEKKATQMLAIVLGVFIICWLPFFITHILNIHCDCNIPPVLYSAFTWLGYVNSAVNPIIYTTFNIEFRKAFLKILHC
Experiment: receptor-ligand binding
Details: read-out: Ki (μM) / Human D2

[
  {
    "compound": "COCCCN1CCC(NC(=O)c2cc(Cl)c(N)c3c2OCC3)CC1 [Prucalopride]",
    "unitDescriptor": "µM",
    "Ki": 14
  },
  {
    "compound": "Nc1c(Cl)cc(C(=O)NC2CCN(CCC(=O)O)CC2)c2c1CCO2",
    "unitDescriptor": "µM",
    "Ki": 235
  }
]

====

Molecular target: h5-HT4B (Homo sapiens)
Sequence (Q13639 whole entry): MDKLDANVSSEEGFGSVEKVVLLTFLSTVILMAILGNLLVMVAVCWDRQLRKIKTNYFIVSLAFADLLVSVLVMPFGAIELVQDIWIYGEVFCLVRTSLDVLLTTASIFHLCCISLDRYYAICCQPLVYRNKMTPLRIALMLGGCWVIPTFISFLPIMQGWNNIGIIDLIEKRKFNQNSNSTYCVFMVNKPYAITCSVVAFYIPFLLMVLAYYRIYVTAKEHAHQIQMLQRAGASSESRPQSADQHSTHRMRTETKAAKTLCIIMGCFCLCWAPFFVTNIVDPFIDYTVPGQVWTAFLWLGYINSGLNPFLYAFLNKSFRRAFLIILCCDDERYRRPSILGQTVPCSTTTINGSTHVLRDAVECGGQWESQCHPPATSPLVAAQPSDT
pKi: −log10 of the molar value.

[
  {
    "molecule": "Nc1c(Cl)cc(C(=O)NC2CCN(CCC(=O)O)CC2)c2c1CCO2 [R107504]",
    "pKi": 7.13
  }
]

====

Protein target, amino acids: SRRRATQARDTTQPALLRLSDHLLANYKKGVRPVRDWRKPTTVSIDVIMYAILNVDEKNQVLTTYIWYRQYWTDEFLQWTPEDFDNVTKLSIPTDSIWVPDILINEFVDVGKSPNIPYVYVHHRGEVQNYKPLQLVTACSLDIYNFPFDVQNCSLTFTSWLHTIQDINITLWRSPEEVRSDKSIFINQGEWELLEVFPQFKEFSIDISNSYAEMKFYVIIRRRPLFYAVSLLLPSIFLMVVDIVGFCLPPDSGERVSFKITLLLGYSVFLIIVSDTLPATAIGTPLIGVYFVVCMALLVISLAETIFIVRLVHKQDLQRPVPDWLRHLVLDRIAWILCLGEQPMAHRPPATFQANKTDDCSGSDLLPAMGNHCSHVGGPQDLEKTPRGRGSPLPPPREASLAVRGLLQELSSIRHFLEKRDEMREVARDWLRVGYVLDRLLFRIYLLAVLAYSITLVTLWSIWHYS
pKi: −log10 of the molar value.

[
  {
    "compound": "COCCCN1CCC(NC(=O)c2cc(Cl)c(N)c3c2OCC3)CC1 [Prucalopride]",
    "pKi": "5.42 to 5.46"
  }
]

====

Target sequence: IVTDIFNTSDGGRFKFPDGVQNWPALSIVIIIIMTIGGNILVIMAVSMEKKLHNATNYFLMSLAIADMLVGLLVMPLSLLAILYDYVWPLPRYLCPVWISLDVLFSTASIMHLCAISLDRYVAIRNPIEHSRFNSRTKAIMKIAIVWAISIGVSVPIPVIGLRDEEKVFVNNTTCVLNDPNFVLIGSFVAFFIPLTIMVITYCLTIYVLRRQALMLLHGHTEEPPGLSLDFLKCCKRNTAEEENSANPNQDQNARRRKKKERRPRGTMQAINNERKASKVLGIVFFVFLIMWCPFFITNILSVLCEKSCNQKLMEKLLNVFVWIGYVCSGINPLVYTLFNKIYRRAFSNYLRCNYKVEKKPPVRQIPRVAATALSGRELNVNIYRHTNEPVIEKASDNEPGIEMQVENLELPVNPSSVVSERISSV
pKi: −log10 of the molar value.
Parameter pKi: see the listing below.
propertyLabel: pKi

[
  {
    "compound": "Nc1c(Cl)cc(C(=O)NC2CCN(CCC(=O)O)CC2)c2c1CCO2 [R107504]",
    "propertyLabel": "pKi",
    "measValue": 3.68
  },
  {
    "compound": "COCCCN1CCC(NC(=O)c2cc(Cl)c(N)c3c2OCC3)CC1 [Prucalopride]",
    "propertyLabel": "pKi",
    "measValue": 4.39
  }
]

====

Target chain: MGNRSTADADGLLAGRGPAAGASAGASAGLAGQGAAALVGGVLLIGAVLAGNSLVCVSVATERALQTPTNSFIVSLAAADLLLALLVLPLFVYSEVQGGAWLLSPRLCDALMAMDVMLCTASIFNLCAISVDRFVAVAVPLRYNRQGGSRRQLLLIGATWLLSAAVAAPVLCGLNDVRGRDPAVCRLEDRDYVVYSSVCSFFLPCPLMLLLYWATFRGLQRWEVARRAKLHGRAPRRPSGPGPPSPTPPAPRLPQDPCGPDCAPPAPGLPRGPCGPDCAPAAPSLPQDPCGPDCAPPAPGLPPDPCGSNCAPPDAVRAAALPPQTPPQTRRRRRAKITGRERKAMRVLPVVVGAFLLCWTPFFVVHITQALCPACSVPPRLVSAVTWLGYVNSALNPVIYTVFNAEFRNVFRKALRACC
pKi: −log10 of the molar value.
propertyLabel: pKi

[
  {
    "molecule": "COCCCN1CCC(NC(=O)c2cc(Cl)c(N)c3c2OCC3)CC1 [Prucalopride]",
    "propertyLabel": "pKi",
    "measValue": "5.62 to 5.80"
  }
]
